biological target: T1, human CACNG1 expressed on cells (human, UniProt Q06432 1-222); experiment: imaging cell binding, HuSKM myotubes
T1 construct: also called hCACNG1; HEK293/hCACNG1
T1 sequence (Q06432 whole entry): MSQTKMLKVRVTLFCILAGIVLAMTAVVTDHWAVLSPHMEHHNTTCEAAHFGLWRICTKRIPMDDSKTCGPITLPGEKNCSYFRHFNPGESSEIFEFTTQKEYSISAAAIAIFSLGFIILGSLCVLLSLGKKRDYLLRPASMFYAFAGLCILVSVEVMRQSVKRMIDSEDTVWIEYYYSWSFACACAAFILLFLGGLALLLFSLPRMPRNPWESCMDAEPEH
QUANTITY_MEASURED: S/N (fold)
One number for each entry, in fold.

## Task Sample H2aM31941N (antibody, mouse IgG1, kappa, V domains shown, Both names are treated as one molecule; also called H1M31941N; lot H1M31941N-L1) VH: QVQLVQSGAEVKKPGASVKVSCKASGYAFTTYGITWVRQAPGQGLEWMGWISAYNGNTNYAEKVQGRFTMTTDTSTNTAYMELRSLRSDDTAVYFCARKGHYGSGTYYNPFGFDFWGQGTMVTVSS VL: EIMLMQSPGTLSLSPGERATLSCRASQSVSSSYLAWYQQKPGQAPRLLIYGASSRATDIPDRFSGSGSGTDFTLTISRLEPEDFAVYFCQQYYGSPWTFGQGTKVEIKR — what was its S/N?
## Result 559

Hello, the source for this data is patent US20240182561A1, in case you need it.
